assay.metric: Ki
A complete answer gives the number followed by the unit.

*Q* Checklist item: Ki tested on CRTh2 receptor (Homo sapiens), entry "Cc1c(CC(=O)O)c2cccnc2n1Cc1ccc(S(C)(=O)=O)cc1C(F)(F)F" , value?
*A* 4 nM
